Provenance of the data: ChEMBL document CHEMBL2424646

# Test system: HeLa
# METHOD: Cytotoxicity against human HeLa cells after 48 hrs by MTT assay
# Format: functional, cell-based
ENDPOINT LABEL: pIC50
Give bare numbers, as −log10 of the molar value.

# example entries with known answers
1) COc1cc([C@@H]2c3cc4c(cc3[C@@H](O[C@@H]3O[C@@H]5CO[C@@H](C)O[C@H]5[C@H](O)[C@H]3O)[C@H]3COC(=O)[C@H]23)OCO4)cc(OC)c1O [ETOPOSIDE]	4.20
2) CC1=C2OCC(C)c3ccc(C)c(c32)C(=O)C1=O (centres undefined) [MANSONONE E]	4.80
3) O=C1C(=O)c2cccc3c2C(=C1Br)OCC3n1cc(-c2ccccc2)nn1 (centres undefined)	4.37
4) O=C1C(=O)c2cccc3c2C(=C1Cl)OCC3n1cc(-c2ccc(F)cc2)nn1 (centres undefined)	4.32
5) O=C1C(=O)c2cccc3c2C(=C1Cl)OCC3n1cc(-c2ccccc2)nn1 (centres undefined)	4.15

Dear colleague, could you please provide pIC50 for the molecules listed below?
1. O=C1C(=O)c2cccc3c2C(=C1Br)OCC3n1cc(-c2ccc(F)cc2)nn1 (centres undefined)
2. O=C1C(=O)c2cccc3c2C(=C1Cl)OCC3n1cc(-c2ccc(Cl)cc2)nn1 (centres undefined)

stdout:
4.52
4.17
